Target: hCA II (Homo sapiens, UniProt P00918)
Construct: gene CA2; native enzyme purified from human blood; cytosolic isoform
Experiment: esterase inhibition assay
Type: biochemical
Labelling field: enter fulfilled if recorded Ki is less than 20 nM. Enter not fulfilled if it equals or exceeds that cut-off.

QUERY: Hi there! Is Ki for NS(=O)(=O)c1cccc(N=NNc2ccccc2)c1 below 20 nM, do you know?
RESULT: fulfilled

QUERY: Hi there! Is Ki for COc1cccc(NN=Nc2cccc(S(N)(=O)=O)c2)c1 below 20 nM, do you know?
RESULT: not fulfilled

QUERY: Hi there! Is Ki for NS(=O)(=O)c1cccc(N=NNc2ccc(Br)cc2)c1 below 20 nM, do you know?
RESULT: fulfilled

QUERY: Hi there! Is Ki for NS(=O)(=O)c1cccc(N=NNc2ccccc2Br)c1 below 20 nM, do you know?
RESULT: not fulfilled

QUERY: Hi there! Is Ki for NS(=O)(=O)c1cccc(N=NNc2cccc(Cl)c2)c1 below 20 nM, do you know?
RESULT: not fulfilled

QUERY: Hi there! Is Ki for NS(=O)(=O)c1cccc(N=NNc2cccc(F)c2)c1 below 20 nM, do you know?
RESULT: not fulfilled

QUERY: Hi there! Is Ki for NS(=O)(=O)c1cccc(N=NNc2ccccc2F)c1 below 20 nM, do you know?
RESULT: not fulfilled

QUERY: Hi there! Is Ki for COc1ccc(/N=N/Nc2cccc(S(N)(=O)=O)c2)cc1 below 20 nM, do you know?
RESULT: not fulfilled

QUERY: Hi there! Is Ki for NS(=O)(=O)c1cccc(N=NNc2ccc(F)cc2)c1 below 20 nM, do you know?
RESULT: not fulfilled

QUERY: Hi there! Is Ki for CCc1ccc(NN=Nc2cccc(S(N)(=O)=O)c2)cc1 below 20 nM, do you know?
RESULT: fulfilled

Origin of measurements: paper PMC6913647
